Reported values of pIC50 for individual entries
target: human recombinant ROCK II (Homo sapiens); construct: recombinant human ROCK-II residues 11-552; His6 (N); experiment: Determination of Rho Kinase Inhibition (ROCK II, Caliper peptide phosphorylation assay); conditions: tested in the form (salt or free base) obtained in the examples
Sequence (O75116 11-552): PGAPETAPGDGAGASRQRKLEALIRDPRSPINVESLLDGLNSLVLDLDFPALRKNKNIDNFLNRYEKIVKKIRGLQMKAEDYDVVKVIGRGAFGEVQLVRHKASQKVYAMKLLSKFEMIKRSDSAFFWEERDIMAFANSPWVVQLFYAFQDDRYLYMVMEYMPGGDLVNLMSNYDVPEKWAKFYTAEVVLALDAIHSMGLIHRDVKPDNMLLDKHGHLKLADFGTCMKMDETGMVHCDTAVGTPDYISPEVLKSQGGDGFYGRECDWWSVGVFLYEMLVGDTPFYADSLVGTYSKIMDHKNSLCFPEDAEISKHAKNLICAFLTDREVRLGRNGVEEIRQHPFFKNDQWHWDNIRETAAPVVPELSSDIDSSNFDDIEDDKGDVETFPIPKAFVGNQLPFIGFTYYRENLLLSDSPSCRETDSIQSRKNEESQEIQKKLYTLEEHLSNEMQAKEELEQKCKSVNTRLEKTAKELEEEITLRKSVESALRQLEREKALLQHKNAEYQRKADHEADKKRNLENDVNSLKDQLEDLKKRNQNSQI
pIC50: −log10 of the molar value.

Solved entries:
Query: Output pIC50 of CCCC1(N)C2CC3CC1CC(Oc1cc4cc[nH]c(=O)c4cc1Cl)(C3)C2 (single isomer, unassigned) [Example 6]
Reply: 6.00 to 7.00

Query: Output pIC50 of CC1(N)C2CC3CC1CC(Oc1cc4cc[nH]c(=O)c4cc1Cl)(C3)C2 (single isomer, unassigned)
Reply: 7.00 to 8.00

Query: Output pIC50 of O=c1[nH]ccc2cc(OC34CC5CC(C3)C(NCc3ccccc3)C(C5)C4)c(Cl)cc12 (single isomer, unassigned)
Reply: 6.00 to 7.00

Query: Output pIC50 of C=CCC1(N)C2CC3CC1CC(Oc1cc4cc[nH]c(=O)c4cc1Cl)(C3)C2 (single isomer, unassigned) [Example 3]
Reply: 7.00 to 8.00

Query: Output pIC50 of N[C@]12CC3CC(C1)[C@H](Oc1cc4cc[nH]c(=O)c4cc1Cl)C(C3)C2 (single isomer, unassigned)
Reply: ≥ 8.00

Continuing:
Query: Output pIC50 of NC1(c2ccccc2)C2CC3CC1CC(Oc1cc4cc[nH]c(=O)c4cc1Cl)(C3)C2 (single isomer, unassigned)
Reply: 6.00 to 7.00

Query: Output pIC50 of NC12C[C@H]3C[C@@H](C1)CC(Oc1cc4cc[nH]c(=O)c4cc1Cl)(C3)C2
Reply: 6.00 to 7.00
